Hey, just so you know, these numbers are from patent US20180030151A1.

Biological target: recombinant human TFPI (tissue factor pathway inhibitor) (human, UniProt P10646 29-304)
Experiment: cell-based or functional assay
The reader will find reported FXa assay % of FXa alone, 20 nM Ab, 10 nM TFPI values listed item by item below.
measured-property: FXa assay % of FXa alone, 20 nM Ab, 10 nM TFPI (%)

binder	measured
clone 1024 (antibody, V domains shown) VH: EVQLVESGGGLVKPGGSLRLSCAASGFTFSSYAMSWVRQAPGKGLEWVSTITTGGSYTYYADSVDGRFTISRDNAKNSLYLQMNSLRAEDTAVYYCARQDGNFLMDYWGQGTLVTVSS VL: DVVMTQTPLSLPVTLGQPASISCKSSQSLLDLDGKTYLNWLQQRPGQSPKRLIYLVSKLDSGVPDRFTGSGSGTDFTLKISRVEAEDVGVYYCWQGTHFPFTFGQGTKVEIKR	42.7
clone 1001 (antibody, V domains shown) VH: EVQLVESGGGLVKPGGSLRLSCAASGFTFSSYAMNWVRQAPGKGLEWVSTITTGGSYTYYADSVDGRFTISRDNAKNSLYLQMNSLRAEDTAVYYCARQDGNFLMDYWGQGTLVTVSS VL: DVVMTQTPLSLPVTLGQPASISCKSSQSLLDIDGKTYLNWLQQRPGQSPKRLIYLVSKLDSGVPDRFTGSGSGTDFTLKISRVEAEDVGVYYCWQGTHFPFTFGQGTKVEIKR	73.9
clone 1104 (antibody, V domains shown) VH: EVQLVESGGGLVKPGGSLRLSCAASGFTFSSYAMNWVRQAPGKGLEWVGTITTGGSHTYYADSVQGRFTISRDNAKNSLYLQMNSLRAEDTAVYYCARQDGNFLMDYWGQGTLVTVSS VL: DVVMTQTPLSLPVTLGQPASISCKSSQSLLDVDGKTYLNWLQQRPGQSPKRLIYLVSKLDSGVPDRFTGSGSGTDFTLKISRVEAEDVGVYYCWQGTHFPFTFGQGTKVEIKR	69.2
clone 1023 (antibody, V domains shown, scFv on yeast at selection; human IgG4/kappa IgG as purified) VH: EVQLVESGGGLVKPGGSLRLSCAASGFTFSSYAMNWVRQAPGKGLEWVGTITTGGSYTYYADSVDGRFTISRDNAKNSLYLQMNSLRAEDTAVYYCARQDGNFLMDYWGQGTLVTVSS VL: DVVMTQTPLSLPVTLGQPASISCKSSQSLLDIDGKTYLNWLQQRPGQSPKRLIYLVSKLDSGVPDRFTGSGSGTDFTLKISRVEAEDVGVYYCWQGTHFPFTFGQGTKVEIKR	101
